- subject-of-test: Glucocorticoid receptor (Homo sapiens, UniProt P04150)
- Sequence (P04150 whole entry): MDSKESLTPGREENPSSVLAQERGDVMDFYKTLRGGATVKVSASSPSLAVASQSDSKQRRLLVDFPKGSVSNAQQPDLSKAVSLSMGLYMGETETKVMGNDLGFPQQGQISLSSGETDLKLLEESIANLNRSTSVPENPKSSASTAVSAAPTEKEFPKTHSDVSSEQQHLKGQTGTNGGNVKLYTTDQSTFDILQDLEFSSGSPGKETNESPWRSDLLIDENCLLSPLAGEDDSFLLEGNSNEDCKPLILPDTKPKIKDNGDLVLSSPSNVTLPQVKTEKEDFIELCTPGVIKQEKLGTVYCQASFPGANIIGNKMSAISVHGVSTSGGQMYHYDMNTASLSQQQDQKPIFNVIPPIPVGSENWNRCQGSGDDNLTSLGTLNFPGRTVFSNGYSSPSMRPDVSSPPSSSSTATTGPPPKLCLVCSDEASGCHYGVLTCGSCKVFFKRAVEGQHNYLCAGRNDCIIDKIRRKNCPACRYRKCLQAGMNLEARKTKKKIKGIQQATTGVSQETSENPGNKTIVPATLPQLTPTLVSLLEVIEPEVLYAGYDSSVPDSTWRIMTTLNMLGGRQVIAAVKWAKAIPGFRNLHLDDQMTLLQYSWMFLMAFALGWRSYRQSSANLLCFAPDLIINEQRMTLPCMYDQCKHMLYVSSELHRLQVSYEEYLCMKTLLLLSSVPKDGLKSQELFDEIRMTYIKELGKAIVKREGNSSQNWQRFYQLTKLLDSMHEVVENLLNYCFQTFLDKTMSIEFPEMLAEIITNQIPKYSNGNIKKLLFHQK
- experimental-details: Transrepression of glucocorticoid receptor in human A549 cells assessed as inhibition of PMA-induced AP-1 activity by luciferase reporter gene assay
- Assay type: cell-based
pEC50: −log10 of the molar value.
Please go through the items and note down their pEC50.

Task item: State its pEC50 for this compound: CC(C)(C(=O)Nc1nccs1)C(c1ccccc1)c1ccc2cnccc2c1 (centres undefined)
Reply: < 5.00

Task item: In one line, give reported pEC50 of the entry CC(C)(C(=O)Nc1nccs1)C(c1ccccc1)c1ccc2cncn2c1 (centres undefined) .
Reply: < 5.00

Task item: Provide one value: measured pEC50 of CC(C)(C(=O)Nc1nccs1)C(c1ccccc1)c1ccc2ncccc2c1 (centres undefined)
Reply: < 5.00

Task item: Entry CC(C)(C(=O)Nc1nncs1)C(c1ccccc1)c1ccc2c(-c3cccc(CO)c3)ncn2c1 (centres undefined) needs its pEC50 filled in; supply it.
Reply: < 5.30
